Just for reference, patent US20250355001A1 is where these values come from.

# Measured target: T1, htau40 (Homo sapiens, UniProt P10636)
# T1 construct: Full length tau (hT40)
# T1 sequence (P10636 1-441 isoform P10636-8): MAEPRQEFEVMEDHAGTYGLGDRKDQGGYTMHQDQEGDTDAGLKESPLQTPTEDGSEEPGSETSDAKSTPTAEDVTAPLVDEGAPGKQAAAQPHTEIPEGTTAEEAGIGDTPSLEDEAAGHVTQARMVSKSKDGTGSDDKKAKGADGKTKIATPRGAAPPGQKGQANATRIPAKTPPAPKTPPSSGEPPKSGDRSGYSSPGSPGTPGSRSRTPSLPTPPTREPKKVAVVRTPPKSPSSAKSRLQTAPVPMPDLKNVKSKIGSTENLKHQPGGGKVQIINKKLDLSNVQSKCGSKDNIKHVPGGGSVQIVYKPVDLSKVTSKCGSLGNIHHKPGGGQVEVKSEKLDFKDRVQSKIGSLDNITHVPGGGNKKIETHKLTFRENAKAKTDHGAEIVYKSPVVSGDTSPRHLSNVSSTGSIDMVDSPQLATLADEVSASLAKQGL
# Assay summary: Biacore X100 SPR kinetics of anti-tau mAbs on immobilised htau40
# Assay type: binding
# Measurement parameters: second Table 25; newly converted mAbs, hT40
Experimental readout: ka (M⁻¹ s⁻¹)
Provide only the numeric value, understood in M⁻¹ s⁻¹.

Note ka for the molecule shown: 3bD11: anti-tau clone, Table 10; SEQ ID NO: 637 (protein) scFv: RVRLQGSGPSLVKPSQTLSLTCTVSGFSFDSYYVGWVRQAPGKALEWLGNIYSTGRAFYNPALKSRLSITRDTSKSQVSLSVSSVTIEDTALYYCVRGSYYHGGGNGMVDFFDYWSPGLLVTVSSEGKSSGASGESKVDDQVVRTQPSSVSGSLGQRVSITCSGSSSNVGYGNYVGWFQQVPGSAPKLLIYAATSRASGVPDRFSGSRSGNTATLTIDSLQAEDEADYYCSSYQRGNTGVFGSGTRLTVLG
2.671e+06
